Test system: SCC-35 cells
Assay: Alamar Blue cell viability assay
Format: cell-based, Human
Details: 72 hours
measured_parameter: IC50 (µM)
Reply with just the number (in µM).

Query: IC50; subject: N.N.[Cl][Pt][Cl] [cisplatin] 30
